# tested on: T1, TNFR1 (Homo sapiens, UniProt P19438)
# T1 chain: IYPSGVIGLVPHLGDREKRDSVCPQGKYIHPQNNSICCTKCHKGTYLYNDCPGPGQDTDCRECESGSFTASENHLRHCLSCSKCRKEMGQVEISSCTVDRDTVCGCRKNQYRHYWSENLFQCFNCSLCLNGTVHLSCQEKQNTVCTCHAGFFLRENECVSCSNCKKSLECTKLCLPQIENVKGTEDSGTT
# assay method text: yeast display SC50
parameter measured: apparent Kd (screen) (nM)
Form entry: value (nM) — number only.

Exercise: Find the measured apparent Kd (screen) of V6Q (designed binder) SMEEEQEKAAKEYEKKKKEAIEKHLEKLKAKDKEAAERFLKELEEAAKEYAKDEAKTMSEEEAKRRAKKYKEKVLLSELSEEEQKEIKEAEEKLVRTILKYVEEAAK and report it.
Key: 6.43

Exercise: Using the record for F39R (designed binder) SMEEEVEKAAKEYEKKKKEAIEKHLEKLKAKDKEAAERRLKELEEAAKEYAKDEAKTMSEEEAKRRAKKYKEKVLLSELSEEEQKEIKEAEEKLVRTILKYVEEAAK , state its measured apparent Kd (screen).
Key: 5.84

Exercise: Please give measured apparent Kd (screen) of the following entry: S80F (designed binder) SMEEEVEKAAKEYEKKKKEAIEKHLEKLKAKDKEAAERFLKELEEAAKEYAKDEAKTMSEEEAKRRAKKYKEKVLLSELFEEEQKEIKEAEEKLVRTILKYVEEAAK
Key: 2.73

Exercise: Give the value of apparent Kd (screen) reported for the following: K68M (designed binder) SMEEEVEKAAKEYEKKKKEAIEKHLEKLKAKDKEAAERFLKELEEAAKEYAKDEAKTMSEEEAKRRAMKYKEKVLLSELSEEEQKEIKEAEEKLVRTILKYVEEAAK
Key: 1.27

Exercise: Specify measured apparent Kd (screen) for K100T (designed binder) SMEEEVEKAAKEYEKKKKEAIEKHLEKLKAKDKEAAERFLKELEEAAKEYAKDEAKTMSEEEAKRRAKKYKEKVLLSELSEEEQKEIKEAEEKLVRTILTYVEEAAK .
Key: 0.869

Exercise: Quickly give me recorded apparent Kd (screen) for K48Y (designed binder) SMEEEVEKAAKEYEKKKKEAIEKHLEKLKAKDKEAAERFLKELEEAAYEYAKDEAKTMSEEEAKRRAKKYKEKVLLSELSEEEQKEIKEAEEKLVRTILKYVEEAAK
Key: 0.653

Exercise: Dear colleague, please send me the reported apparent Kd (screen) for I21M (designed binder) SMEEEVEKAAKEYEKKKKEAMEKHLEKLKAKDKEAAERFLKELEEAAKEYAKDEAKTMSEEEAKRRAKKYKEKVLLSELSEEEQKEIKEAEEKLVRTILKYVEEAAK when you can.
Key: 0.539

Exercise: Read off the recorded apparent Kd (screen) for I98T (designed binder) SMEEEVEKAAKEYEKKKKEAIEKHLEKLKAKDKEAAERFLKELEEAAKEYAKDEAKTMSEEEAKRRAKKYKEKVLLSELSEEEQKEIKEAEEKLVRTTLKYVEEAAK
Key: 15.2
